Hello, the source for this data is patent US20200022963A1, in case you need it.

Experiment: Pharmacokinetic profile after single oral, intranasal and intravenous betahistine in beagle dogs, Example 5
Type: in vivo
Details: both sexes, beagle, dog, in vivo, po, 24 mg/kg, Betahistine Plasma Concentration
observation type: concentration at 24 h (ng/mL)

   compound_string       observation_type  quantitative_readout
0     CNCCc1ccccn1  concentration at 24 h                     0

###

Assay: Pharmacokinetic profile after single oral, intranasal and intravenous betahistine in beagle dogs, Example 5
Format: in vivo
Settings: female, beagle, dog, in vivo, inhaled or intranasal, 6 mg/kg
Experimental: In this study, the pharmacokinetic profile of betahistine was evaluated after a single dose administration of betahistine in male and female beagle dogs (age 5-7 months; weight of 5-11 kg, within a range of 3 kg for each sex) for three routes of administration: oral, intranasal, and intravenous. On Day 1 of the study, betahistine (BH) was delivered orally at a dose of 12 mg/kg, 24 mg/kg, or 48 mg/kg. Each treatment group comprised 8 animals (4 males and 4 females). […]
Catalogue of Cmax values
observation type: Cmax (ng/mL)

In [3]: df
Out[3]:
                                   compound  observation_type  quantitative_readout
0  O=C(O)Cc1ccccn1 [2-PAA, 2-pyridylacetic acid]              Cmax                  5570
1                CNCCc1ccccn1 [betahistine]              Cmax                   770
